Assay Protocol: recombinant barcode read abundance after kanamycin selection (control-corrected) (log10(CPM+1)); higher = more efficient recombination; sequences stand for … in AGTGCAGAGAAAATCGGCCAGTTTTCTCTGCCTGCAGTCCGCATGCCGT…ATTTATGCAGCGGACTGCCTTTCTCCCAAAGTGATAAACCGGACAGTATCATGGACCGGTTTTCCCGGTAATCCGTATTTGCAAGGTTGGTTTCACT; site = the 11-nt target
Recorded Metric: recombinant barcode read abundance (log10)
The reply should be a number, written without any unit.

INPUT: May I ask what recombinant barcode read abundance (log10) has been recorded for TCTACCCGCTGGGTTCTAACCTGTTGCTGGC [TCTACCCCTCA_LTGcore_GC_RTGcore_GC] (site TCTACCCCTCA) (LTG core: GC, RTG core: GC) ?
OUTPUT: 0.124

INPUT: May I ask what recombinant barcode read abundance (log10) has been recorded for GAGCCCAGGTGGGTTCTAACCTGTTGCCTAG [GAGCCCACTAG_LTGcore_GG_RTGcore_CT] (site GAGCCCACTAG) (LTG core: GG, RTG core: CT) ?
OUTPUT: 0.181

INPUT: May I ask what recombinant barcode read abundance (log10) has been recorded for TGATACCCTTGGGTTCTAACCTGTTGCGTAC [TGATACCCTAC_LTGcore_CT_RTGcore_GT] (site TGATACCCTAC) (LTG core: CT, RTG core: GT) ?
OUTPUT: 0.08

INPUT: May I ask what recombinant barcode read abundance (log10) has been recorded for GGCTCCCAGTGGGTTCTAACCTGTTGCGGAG [GGCTCCCCTCC_LTGcore_AG_RTGcore_CT] (site GGCTCCCCTCC) (LTG core: AG, RTG core: CT) ?
OUTPUT: 0.156

INPUT: May I ask what recombinant barcode read abundance (log10) has been recorded for GAGTCCAGATGGGTTCTAACCTGTTGCGTAG [GAGTCCACTAC_LTGcore_GA_RTGcore_CT] (site GAGTCCACTAC) (LTG core: GA, RTG core: CT) ?
OUTPUT: 0.294

INPUT: May I ask what recombinant barcode read abundance (log10) has been recorded for GGTGCCCGGTGGGTTCTAACCTGTTGCCGCC [GGTGCCCCTCG_LTGcore_GG_RTGcore_GG] (site GGTGCCCCTCG) (LTG core: GG, RTG core: GG) ?
OUTPUT: 0.0147

Next up:
INPUT: May I ask what recombinant barcode read abundance (log10) has been recorded for TAAGAATGCTGGGTTCTAACCTGTTGCCTGC [TAAGAATCTAG_LTGcore_GC_RTGcore_GC] (site TAAGAATCTAG) (LTG core: GC, RTG core: GC) ?
OUTPUT: 0.0564
